- Measured on: UniProtKB P08482
- Sequence (P08482 whole entry): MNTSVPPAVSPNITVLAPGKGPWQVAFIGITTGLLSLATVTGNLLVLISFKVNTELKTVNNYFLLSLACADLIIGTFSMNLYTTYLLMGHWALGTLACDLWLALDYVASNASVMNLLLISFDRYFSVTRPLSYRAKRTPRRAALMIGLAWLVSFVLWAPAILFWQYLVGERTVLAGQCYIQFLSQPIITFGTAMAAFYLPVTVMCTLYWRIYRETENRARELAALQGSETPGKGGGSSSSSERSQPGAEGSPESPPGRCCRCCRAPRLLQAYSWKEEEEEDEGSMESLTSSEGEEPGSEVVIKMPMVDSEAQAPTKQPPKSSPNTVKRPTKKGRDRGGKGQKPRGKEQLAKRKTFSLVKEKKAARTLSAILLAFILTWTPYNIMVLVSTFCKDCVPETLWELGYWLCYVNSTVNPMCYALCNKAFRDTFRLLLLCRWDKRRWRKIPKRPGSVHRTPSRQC
- Assay comment: biochemical
- Format: binding
- Particulars: selectivity; values correspond to IC50 M2 / IC50 M1
Assay endpoint: ratio R of the IC50 values for the M1 and M2 receptors

Compound	Qualifier operator	Measured number
c1csc(-c2csc(NCCN3CCOCC3)n2)c1 [SR 44575 A]	>	14
Cc1nc(NCCCN(C)C)sc1-c1ccccc1 [SR 44467 A]	=	25
Cc1ccccc1-c1csc(NCCCN(C)C)n1 [SR 45001 A]	=	11
c1ccc(-c2cnc(NCCN3CCCCC3)s2)cc1 [SR 44490 A]	=	16
c1ccc(-c2cnc(NCCc3ccncc3)s2)cc1 [SR 44966 A]	=	22
c1ccc(-c2nc(NCc3cccnc3)sc2-c2ccccc2)cc1 [SR 44904 A]	>	17
CN(C)CCCNc1nc(C2CCCCC2)cs1 [SR 44574 A]	=	120
CCN(CC)CCCNc1nc(Cc2ccccc2)c(-c2ccccc2)s1 [SR 44515 A]	=	17
CCN(CC)CCNc1nc2c(s1)CCCc1ccc([N+](=O)[O-])cc1-2.Cl.Cl [SR 44411 A]	=	7
CN(C)CCCNc1nc(-c2ccc(Cl)cc2Cl)cs1 [SR 44749 A]	=	14
Cc1cc(C)c(-c2csc(NCCN(C(C)C)C(C)C)n2)c(C)c1 [SR 44908 A]	=	31
CCN(CC)CCCNc1nc(C)c(-c2ccccc2)s1 [SR 44373 A]	=	21
CNCCCNc1nc(-c2c(C)cc(C)cc2C)cs1 [SR 45030 A]	=	50
Cc1cc(C)c(-c2csc(NCc3ccccn3)n2)c(C)c1 [SR 44813 A]	>	17
Cc1nc(NCCN2CCCC2)sc1-c1ccccc1 [SR 44488 A]	=	20
CN(C)CCCNc1nc(-c2cccc([N+](=O)[O-])c2)cs1 [SR 44791 A]	=	8
CCN(CC)CCCNc1nc(-c2ccccc2)cs1 [SR 44374 A]	=	20
CCN(CC)CCNc1nc2c(s1)CCc1ccccc1-2 [SR 44393 A]	=	15
Cc1cc(C)c(-c2csc(NCCCN3CCN(C)CC3)n2)c(C)c1 [SR 44915 A]	=	100
CN(C)CCCNc1nc(-c2ccccc2)c(-c2ccccc2)s1 [SR 45015 A]	=	13
Cc1cc(C)c(-c2csc(NCCC3CCCN3C)n2)c(C)c1 (stereo not drawn) [SR 44814 A]	=	7
Cc1ccc(-c2csc(NCCCN(C)C)n2)cc1 [SR 44832 A]	>	42
CN(C)CCCNc1nc(Cc2ccccc2)c(-c2ccccc2)s1 [SR 45016 A]	=	55
CCN(CC)CCCNc1nc(-c2ccccc2)c(C)s1 [SR 44434 A]	=	46
CC(C)N(CCCNc1nc(-c2ccc(F)cc2F)cs1)C(C)C [SR 44916 A]	=	38
CN(C)CCCNc1nc(-c2ccc(Cl)cc2)cs1 [SR 44493 A]	=	28
CN(C)CCCNc1ncc(-c2ccccc2)s1 [SR 44967 A]	=	22
c1ccc(-c2cnc(NCCN3CCCC3)s2)cc1 [SR 44438 A]	=	60
CCN(CC)CCNc1nc(C)c(-c2ccccc2)s1 [SR 44436 A]	=	29
CCN(CC)CCNc1ncc(-c2ccccc2)s1.Cl.Cl [SR 44318 A]	=	11
Cc1cc(C)c(-c2csc(NCc3ccncc3)n2)c(C)c1 [SR 44864 A]	>	360
CCc1nc(NCCCN(CC)CC)sc1-c1ccccc1 [SR 44963 A]	=	50
NCCCNc1nc(-c2ccc(F)cc2)cs1 [SR 44886 A]	=	11
Cc1cc(C)c(-c2csc(NCCc3ccccn3)n2)c(C)c1 [SR 44905 A]	=	25
CCN(CC)CCNc1nc(C)cs1 [SR 44422 A]	=	12
O=C1CCCN1CC#CCN1CCCC1 [Oxotremorine, reference compound]	=	1
Cc1sc(NCCCN)nc1-c1ccccc1.Cl.Cl [SR 44514 A]	>	200
CCN(CC)CCCNc1nc(-c2ccc3ccccc3c2)cs1 [SR 44573 A]	=	7
CC(C)(c1ccccc1)c1csc(NCc2cccnc2)n1 [SR 45106 A]	>	33
CN1CCN(CCCNc2nc(-c3ccc(F)cc3)cs2)CC1 [SR 44862 A]	=	11
CCN(CC)CCCNc1nc2c(s1)CCCc1ccccc1-2 [SR 44326 A]	>	45
Cc1sc(NCCCN(C)C)nc1-c1ccccc1 [SR 44769 A]	=	15
